Would you kindly list Viability (%) of E-11 cells, mean for each of these substances?
Test system: E-11 cells
method.description: MTT cytotoxicity test on E-11 cells
Type: cell-based
assay.setup: peptide 0.11111 mg/mL, 24 h at 25 °C, mean of n = 3, control = 100.0
Ends that are not written are not given here.
One number for each entry, in %.

                              substance  units  value_measured
0          PDPTDNDHTFD-NH2 [Peptide P4]      %           110.6
1    SVRLSVPSLETPEETTA-NH2 [Peptide P7]      %           116.6
2       ALQATRGAVVAKWW-NH2 [Peptide P5]      %           122.7
3  TTKAANPQPRRRANNRRRS-NH2 [Peptide P1]      %            96.6

Could I get Viability (%) of E-11 cells, mean for every one of these entries?
1. LLWTSSGKEQR-NH2 [Peptide P6]
2. VSKASTVTGFGR-NH2 [Peptide P2]
3. PRLGHAARIFQRYA-NH2 [Peptide P3]

Ans:
[152.9, 106.2, 89.8]

----------
Test system: E-11 cells
method.description: MTT cytotoxicity test on E-11 cells
Format: cell-based
assay.setup: peptide 0.33333 mg/mL, 24 h at 25 °C, mean of n = 3, control = 100.0
Experimental: Synthetic peptides cytotoxicity on E − 11 cells was assessed using the MTT (Sigma) test with serial peptide dilutions (1000–4 µg/mL in L − 15 medium; n = 3; 24 h at 25 °C) as elsewhere (Cervera et al. [2024c]). Absorbance was measured at 570 nm (BMG Labtech); blanks lacked cells. Cell viability was calculated as the OD ratio of treated to untreated cells × 100, normalized at 690 nm. Supplementary data S4: Cell viability (%) of E-11 cells after incubation with the synthetic peptides for 24 h. […]
Ends that are not written are not given here.
reported.property: Viability (%) of E-11 cells, mean
Numbers only, in %.

Field: example entries. Status: answers known.
In [3]: df
Out[3]:
                              substance  value_measured
0       ALQATRGAVVAKWW-NH2 [Peptide P5]           104.3
1  TTKAANPQPRRRANNRRRS-NH2 [Peptide P1]           109.3
2          PDPTDNDHTFD-NH2 [Peptide P4]           100.5
3    SVRLSVPSLETPEETTA-NH2 [Peptide P7]           119.8
4       PRLGHAARIFQRYA-NH2 [Peptide P3]            90.9
5         VSKASTVTGFGR-NH2 [Peptide P2]           126.9

Now take the following substance into account.
Q: Record request: Viability (%) of E-11 cells, mean value, item LLWTSSGKEQR-NH2 [Peptide P6]
Ans: 146.5

----------
System: E-11 cells
method.description: MTT cytotoxicity test on E-11 cells
Type: cell-based
assay.setup: peptide 0.00411 mg/mL, 24 h at 25 °C, mean of n = 3, control = 100.0
Ends that are not written are not given here.
Would you kindly list Viability (%) of E-11 cells, mean for each of these substances?
One number for each entry, in %.

Field: example entries. Status: answers known.
>>> print(df.to_string())
                              substance  value_measured
0          PDPTDNDHTFD-NH2 [Peptide P4]            87.4
1  TTKAANPQPRRRANNRRRS-NH2 [Peptide P1]           123.5
2          LLWTSSGKEQR-NH2 [Peptide P6]           157.5
3    SVRLSVPSLETPEETTA-NH2 [Peptide P7]           149.6
4       PRLGHAARIFQRYA-NH2 [Peptide P3]            89.4

Could I get Viability (%) of E-11 cells, mean for every one of these entries?
1. VSKASTVTGFGR-NH2 [Peptide P2]
2. ALQATRGAVVAKWW-NH2 [Peptide P5]

Ans:
1. 103.1
2. 126.6
